Known t1/2 DMSO (25 °C) of a selection of compounds
- measurementProtocol: Thermal cis-to-trans isomerization (thermal half-life of the metastable cis isomer)
- Type: physicochemical
- measurementSetup: thermal cis-to-trans isomerization, DMSO, 25 °C, 20 µM

Completed entries (count: 8):
COC(C)(C#Cc1cnc(N)nc1N)c1ccc(/N=N/c2ccc(C(=O)O)cc2)cc1 (stereo not drawn) [Compound 11]: > 24 h
COC(C)(C#Cc1cnc(N)nc1N)c1ccc(/N=N/c2ccccc2)cc1 (stereo not drawn) [Compound 6]: > 24 h
COc1ccc(/N=N/c2ccc(C(C)(C#Cc3cnc(N)nc3N)OC)cc2)cc1 (stereo not drawn) [Compound 8]: > 24 h
COC(C)(C#Cc1cnc(N)nc1N)c1ccc(/N=N/c2ccc(C)c(C(=O)O)c2)cc1 (stereo not drawn) [Compound 12]: > 24 h
Nc1ncc(/N=N/c2ccccc2)c(N)n1 [Compound 1]: 1.3 h
Nc1ncc(C#Cc2ccc(/N=N/c3ccccc3)cc2)c(N)n1 [Compound 4]: 8.6 h
Nc1ncc(C#Cc2cccc(/N=N/c3ccccc3)c2)c(N)n1 [Compound 5]: > 24 h
COC(C)(C#Cc1cnc(N)nc1N)c1ccc(/N=N/c2ccc(Cl)c(C(=O)O)c2)cc1 (stereo not drawn) [Compound 13]: > 24 h

Qu. Please report the recorded t1/2 DMSO (25 °C) for COC(C)(C#Cc1cnc(N)nc1N)c1ccc(/N=N/c2c(C)nn(C)c2C)cc1 (stereo not drawn) [Compound 9] .
Ans. > 24 h

Qu. Please report the recorded t1/2 DMSO (25 °C) for Nc1ncc(-c2cccc(/N=N/c3ccccc3)c2)c(N)n1 [Compound 3] .
Ans. > 24 h

Qu. Please report the recorded t1/2 DMSO (25 °C) for COC(C)(C#Cc1cnc(N)nc1N)c1ccc(/N=N/c2ccc(C(=O)O)c(Cl)c2)cc1 (stereo not drawn) [Compound 15] .
Ans. > 24 h

Qu. Please report the recorded t1/2 DMSO (25 °C) for COC(C)(C#Cc1cnc(N)nc1N)c1cccc(/N=N/c2ccccc2)c1 (stereo not drawn) [Compound 7] .
Ans. > 24 h

Qu. Please report the recorded t1/2 DMSO (25 °C) for Nc1ncc(-c2ccc(/N=N/c3ccccc3)cc2)c(N)n1 [Compound 2] .
Ans. 27 h

Qu. Please report the recorded t1/2 DMSO (25 °C) for COC(C)(C#Cc1cnc(N)nc1N)c1ccc(/N=N/c2cccc(C(=O)O)c2)cc1 (stereo not drawn) [Compound 10] .
Ans. > 24 h

Qu. Please report the recorded t1/2 DMSO (25 °C) for COC(C)(C#Cc1cnc(N)nc1N)c1ccc(/N=N/c2ccc(C(=O)O)c(C)c2)cc1 (stereo not drawn) [Compound 14] .
Ans. > 24 h

###

- targetOfAssay: eDHFR (Escherichia coli, UniProt P0ABQ4)
- Construct: made in house; host or cells: E. cloni EXPRESS BL21 (DE3) cells (Lucigen), pT7-SC1 plasmid
- Sequence (P0ABQ4 whole entry): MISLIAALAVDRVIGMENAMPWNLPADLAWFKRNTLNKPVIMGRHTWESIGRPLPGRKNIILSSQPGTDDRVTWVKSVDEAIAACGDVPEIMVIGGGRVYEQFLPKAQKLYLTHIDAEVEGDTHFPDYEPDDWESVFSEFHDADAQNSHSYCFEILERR
- measurementProtocol: biochemical
- measurementSetup: fragment, no irradiation; read-out: IC50
valueKind: pIC50
Note on pIC50: it is the negative log10 of concentration, concentration in mol/L.

Qu. Please report the recorded pIC50 for Nc1ccnc(N)n1 [2,4-diaminopyrimidine, reference compound] .
Ans. 3.41

###

- System: E. coli CS1562
- measurementProtocol: Antibacterial activity assay (MIC, bacterial growth curves)
- Type: cell-based, Escherichia coli
- measurementSetup: Escherichia coli; dark; E. coli CS1562, 24 h; read-out: MIC Dark
valueKind: MIC (µM)
The answer is to be given in µM; state only the numeric part.

Completed entries (count: 3):
COC(C)(C#Cc1cnc(N)nc1N)c1ccc(/N=N/c2ccc(C)c(C(=O)O)c2)cc1 (stereo not drawn) [Compound 12]: 20
COC(C)(C#Cc1cnc(N)nc1N)c1ccc(/N=N/c2cccc(C(=O)O)c2)cc1 (stereo not drawn) [Compound 10]: 20
COC(C)(C#Cc1cnc(N)nc1N)c1ccc(/N=N/c2c(C)nn(C)c2C)cc1 (stereo not drawn) [Compound 9]: 80

Qu. Please report the recorded MIC for COC(C)(C#Cc1cnc(N)nc1N)c1ccc(/N=N/c2ccc(C(=O)O)cc2)cc1 (stereo not drawn) [Compound 11] .
Ans. 40

###

Known IC50 of a selection of molecules
- targetOfAssay: eDHFR (Escherichia coli)
- Construct: made in house; host or cells: E. cloni EXPRESS BL21 (DE3) cells (Lucigen), pT7-SC1 plasmid
- measurementProtocol: biochemical
- measurementSetup: irradiated with λ1 (1: continuous irradiation at 390 nm); read-out: IC50 Light
The answer is to be given in µM; state only the numeric part.

Nc1ncc(C#Cc2cccc(/N=N/c3ccccc3)c2)c(N)n1 [Compound 5]: 2.6
COc1ccc(/N=N/c2ccc(C(C)(C#Cc3cnc(N)nc3N)OC)cc2)cc1 (stereo not drawn) [Compound 8]: 0.2

Would you kindly look at the next entry?
Qu. Please report the recorded IC50 for COC(C)(C#Cc1cnc(N)nc1N)c1ccc(/N=N/c2ccccc2)cc1 (stereo not drawn) [Compound 6] .
Ans. 0.16

###

Known IC50 of a selection of molecules
- targetOfAssay: eDHFR (Escherichia coli)
- Construct: made in house; host or cells: E. cloni EXPRESS BL21 (DE3) cells (Lucigen), pT7-SC1 plasmid
- measurementProtocol: biochemical
- measurementSetup: after irradiation; read-out: DHFR inhibition IC50 (nM) after irradiation
The answer is to be given in nM; state only the numeric part.

Completed entries (count: 3):
COC(C)(C#Cc1cnc(N)nc1N)c1ccc(/N=N/c2ccc(C(=O)O)cc2)cc1 (stereo not drawn): 70
COC(C)(C#Cc1cnc(N)nc1N)c1ccc(/N=N/c2ccc(C(=O)O)c(Cl)c2)cc1 (stereo not drawn): 27
COc1ccc(/N=N/c2ccc(C(C)(C#Cc3cnc(N)nc3N)OC)cc2)cc1 (stereo not drawn): 200

Would you kindly look at the next entry?
Qu. Kindly state the measured IC50 obtained for COC(C)(C#Cc1cnc(N)nc1N)c1ccc(/N=N/c2ccc(Cl)c(C(=O)O)c2)cc1 (stereo not drawn) with eDHFR (Escherichia coli).
Ans. 29

###

Known melting point of a selection of molecules

COc1ccc(/N=N/c2ccc(C(C)(C#Cc3cnc(N)nc3N)OC)cc2)cc1 (stereo not drawn): 186 to 189 °C

Qu. Please report the recorded melting point for COC(C)(C#Cc1cnc(N)nc1N)c1cccc(/N=N/c2ccccc2)c1 (stereo not drawn) .
Ans. 105 to 107 °C

Qu. Please report the recorded melting point for COC(C)(C#Cc1cnc(N)nc1N)c1ccc(/N=N/c2ccc(C(=O)O)c(C)c2)cc1 (stereo not drawn) .
Ans. 240 °C (dec.)

Qu. Please report the recorded melting point for COC(C)(C#Cc1cnc(N)nc1N)c1ccc(/N=N/c2cccc(C(=O)O)c2)cc1 (stereo not drawn) .
Ans. 190 °C (dec.)

Qu. Please report the recorded melting point for "Nc1ncc(C#Cc2cccc(/N=N/c3ccccc3)c2)c(N)n1" .
Ans. 207 to 209 °C

Qu. Please report the recorded melting point for COC(C)(C#Cc1cnc(N)nc1N)c1ccc(/N=N/c2ccccc2)cc1 (stereo not drawn) .
Ans. 149 to 150 °C

Qu. Please report the recorded melting point for COC(C)(C#Cc1cnc(N)nc1N)c1ccc(/N=N/c2c(C)nn(C)c2C)cc1 (stereo not drawn) .
Ans. 162 to 164 °C

Qu. Please report the recorded melting point for "Nc1ncc(/N=N/c2ccccc2)c(N)n1" .
Ans. > 250 °C

Qu. Please report the recorded melting point for "Nc1ncc(-c2cccc(/N=N/c3ccccc3)c2)c(N)n1" .
Ans. 209 to 211 °C

###

- targetOfAssay: eDHFR (Escherichia coli)
- Construct: made in house; host or cells: E. cloni EXPRESS BL21 (DE3) cells (Lucigen), pT7-SC1 plasmid
- measurementProtocol: biochemical
- measurementSetup: IC50 Dark, dark-adapted (thermally adapted, trans isomer)
valueKind: pIC50
Note on pIC50: it is the negative log10 of concentration, concentration in mol/L.

Nc1ncc(-c2cccc(/N=N/c3ccccc3)c2)c(N)n1: 6.55
COc1ccc(/N=N/c2ccc(COc3c(OC)cc(Cc4cnc(N)nc4N)cc3OC)cc2)cc1 [PMAT, para-methoxyazobenzene trimethoprim, reference compound]: 8.70
Nc1ncc(C#Cc2cccc(/N=N/c3ccccc3)c2)c(N)n1: 5.28
COC(C)(C#Cc1cnc(N)nc1N)c1ccc(/N=N/c2ccc(C(=O)O)c(Cl)c2)cc1 (centres unmarked): 7.28
COC(C)(C#Cc1cnc(N)nc1N)c1ccc(/N=N/c2cccc(C(=O)O)c2)cc1 (centres unmarked): 7.62

Would you kindly look at the next entry?
Qu. Kindly state the measured pIC50 obtained for COC(C)(C#Cc1cnc(N)nc1N)c1ccc(/N=N/c2ccc(C(=O)O)cc2)cc1 (centres unmarked) with eDHFR (Escherichia coli).
Ans. 7.24

###

- targetOfAssay: eDHFR (Escherichia coli, UniProt P0ABQ4);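 note: purified E. coli DHFR colorimetric assay, enzyme with NADPH 3 min then inhibitor (10^-12 to 10^-5 M) 7 min, rate ΔAbs/s relative to DMSO control (1% v/v), triplicates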
- Construct: made in house; host or cells: E. cloni EXPRESS BL21 (DE3) cells (Lucigen), pT7-SC1 plasmid
- measurementProtocol: biochemical
- measurementSetup: before irradiation; read-out: DHFR inhibition IC50 (nM) before irradiation
Classify: true (1) when IC50 is strictly less than 80 nM; false (0) when IC50 is not.

Answered cases to consult:
COC(C)(C#Cc1cnc(N)nc1N)c1ccc(/N=N/c2ccc(C(=O)O)c(C)c2)cc1 (stereo not shown): true (1)
COC(C)(C#Cc1cnc(N)nc1N)c1ccc(/N=N/c2c(C)nn(C)c2C)cc1 (stereo not shown): false (0)
COC(C)(C#Cc1cnc(N)nc1N)c1ccc(/N=N/c2ccc(Cl)c(C(=O)O)c2)cc1 (stereo not shown): true (1)
COC(C)(C#Cc1cnc(N)nc1N)c1ccc(/N=N/c2ccc(C)c(C(=O)O)c2)cc1 (stereo not shown): true (1)
COC(C)(C#Cc1cnc(N)nc1N)c1cccc(/N=N/c2ccccc2)c1 (stereo not shown): false (0)

Qu. For COc1cc(Cc2cnc(N)nc2N)cc(OC)c1OCc1cc(F)c(/N=N/c2c(F)cccc2F)c(F)c1 [TFAT, reference compound] , is the recorded IC50 below the cut-off of 80 nM?
Ans. true (1)

Qu. For "Nc1ncc(C#Cc2ccc(/N=N/c3ccccc3)cc2)c(N)n1" , is the recorded IC50 below the cut-off of 80 nM?
Ans. false (0)

Qu. For COc1cc(Cc2cnc(N)nc2N)cc(OC)c1OCc1cc(Cl)c(/N=N/c2c(Cl)cccc2Cl)c(Cl)c1 [TCAT, reference compound] , is the recorded IC50 below the cut-off of 80 nM?
Ans. true (1)

Qu. For "Nc1ncc(-c2ccc(/N=N/c3ccccc3)cc2)c(N)n1" , is the recorded IC50 below the cut-off of 80 nM?
Ans. false (0)

Qu. For "Nc1ncc(/N=N/c2ccccc2)c(N)n1" , is the recorded IC50 below the cut-off of 80 nM?
Ans. false (0)
